system_name: PDGF-BB (Homo sapiens, UniProt P01127 P01127:82-190)
Sequence (P01127 82-190, one chain of several): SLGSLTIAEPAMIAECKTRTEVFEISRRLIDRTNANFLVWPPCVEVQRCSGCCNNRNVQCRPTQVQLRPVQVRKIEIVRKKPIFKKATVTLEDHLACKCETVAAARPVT
assay_remarks: competition; 125I-PDGF-BB binding to PDGF alpha-receptor on PAE cells
condition: tags: R&D Systems; chain copies: 2; three-way junction
assay_metric: IC50

Noted for TGGGAGGGCGCGTTCTTCGTGGTTACTTTTAGTCCCG (ssDNA, 3'-3' inverted T) [20t] : its IC50 reads ~1 nM
